These data points were gathered from patent US4556715A.

- Test system: serum and liver lipid levels in rats
- Measurement protocol: Serum and liver lipid levels and relative liver weight in rats (100 mg/kg, 10 days)
- Type: in vivo, Male rats of the Wistar strain
- Measurement setup: Table 2; 100 mg/kg p.o. 10 days; Mean ± S.E. (n = 9)
Below is a list of entries, each paired with its recorded Serum lipid levels PL value.
Respond numerically; units are mg/dL and should not be typed.

Solved cases (2 shown):
Compound	Scale unit	Numeric result
O=C(OCc1ccc(OCc2ccc(Cl)cc2)cc1)c1cccnc1 [KCD-232, 4-(4-chlorobenzyloxy)benzyl nicotinate, reference compound]	mg/dL	100
O=C(OCCCCc1ccc(OCCCCc2ccc(Cl)cc2)cc1)c1cccnc1 [n1=4, n2=4]	mg/dL	103

Qu. Answer with the recorded Serum lipid levels PL for the compound listed here: O=C(OCc1ccc(OCCCCCCc2ccc(Cl)cc2)cc1)c1cccnc1 [n1=6, n2=1]
Ans. 97.8
